Test system: SW-620 colon
assay notes: NCI-60 one-dose screen, 48 h (100 = growth as untreated, 0 = no growth, -100 = all killed)
condition parameters: 10 µM
About 83,000 compounds went through this panel and 20% of them were active in at least one assay; those are over-represented in the sample as a whole.
# growth values compiled below
Provide only the numeric value, understood in %.

In: What does the data say about its growth? Entry: CCN1CCC(CCOC)(CN2c3ccccc3Sc3ccc(Cl)cc32)C1 (centres undefined)
Out: 54

In: Request: O=C(O)C(SC(C(=O)O)c1ccccc1)c1ccccc1 (centres undefined)
Out: 107

Okay, now this compound:
In: What does the data say about its growth? Entry: "COc1ccc(/C=C/C(C)=N/OCC(=O)O)cc1"
Out: 107

###

# growth values compiled below
Tested on: LOX IMVI melanoma
assay notes: NCI-60 one-dose screen, 48 h (100 = growth as untreated, 0 = no growth, -100 = all killed)
condition parameters: 10 µM
Compounds without any hit were thinned out: in the full panel of roughly 83,000, 20% have a hit.
Provide only the numeric value, understood in %.

Worked cases, answers included:
In: What does the data say about its growth? Entry: "C#Cc1ccc(-n2c(/C=C/c3ccc(O)c(OC)c3)nc3ncccc3c2=O)cc1"
Out: 93.5

In: Request: "CCOC(=O)N1C/C(=C/c2ccc(Cl)cc2)C(=O)/C(=C/c2ccc(Cl)cc2)C1"
Out: -56.8

In: Request: "COc1cc(-c2nnc(-c3c(-c4ccc(F)cc4)nc4ccccn34)o2)cc(OC)c1OC"
Out: 69.7

In: Request: COc1cc(/C=C2\CCCC3=C2N=C2SC=NN2C3c2cc(OC)c(OC)c(OC)c2)cc(OC)c1OC (centres undefined)
Out: -36.9

In: Request: O=C(N/N=C/c1ccccc1)C(Oc1ccccc1)c1ccccc1 (centres undefined)
Out: 90.1

New cases:
In: What does the data say about its growth? Entry: O=C1OCC2=C1C(c1cccc(Cl)c1)c1cc3c(cc1N2CCO)OCCO3 (centres undefined)
Out: 22.2

In: Request: "Cc1cc2c(C)c3cc(C)c(N)cc3nc2cc1N"
Out: 4.46

In: Request: "CN1CCCNc2c(c(=O)c2=O)NCCCN(C)CCCNc2c(c(=O)c2=O)NCCCN(C)CCCNc2c(c(=O)c2=O)NCCCN(C)CCCNc2c(c(=O)c2=O)NCCCN(C)CCCNc2c(c(=O)c2=O)NCCCN(C)CCCNc2c(c(=O)c2=O)NCCCN(C)CCCNc2c(c(=O)c2=O)NCCC1"
Out: 58.1

###

# growth values compiled below
Test system: KM12 colon
assay notes: NCI-60 one-dose screen, 48 h (100 = growth as untreated, 0 = no growth, -100 = all killed)
condition parameters: 10 µM
About 83,000 compounds went through this panel and 20% of them were active in at least one assay; those are over-represented in the sample as a whole.
Provide only the numeric value, understood in %.

Worked cases, answers included:
In: What does the data say about its growth? Entry: "Cc1nc2c(c(=O)[nH]1)OCN(Cc1ccccc1)C2"
Out: 104

In: Request: "COc1ccc2c(c1)C(=O)c1c-2c(OCCN(C)C)nc2ccccc12"
Out: 23.1

New cases:
In: What does the data say about its growth? Entry: "CN(C)CCNC(=O)c1cccn2c(=O)c3cc4ccccc4cc3nc12"
Out: -10.2

In: Request: "CCOC(=O)N/N=C\C(C)=N\NC(=O)OCC"
Out: 102

In: Request: "NC(=S)N=Nc1c(O)c2ccccc2c2ccccc12"
Out: 92

###

# growth values compiled below
Tested on: IGROV1 ovarian
assay notes: NCI-60 one-dose screen, 48 h (100 = growth as untreated, 0 = no growth, -100 = all killed)
condition parameters: 10 µM
Method: Growth inhibition of the IGROV1 human tumor cell line is measured as a screen for anti-cancer activity. Cells are grown in 96 well plates and exposed to the test compound for 48 hours. Compounds are tested at a single concentration, which is 10^-5 M for most compounds. The reported endpoint is percent growth (GI% or GIPRCNT), where numbers from 0 - 100% represent growth inhibition, and numbers from -100% - 0 represent cell death. For example, a value of 40 represents 60% growth inhibition. […]
Compounds without any hit were thinned out: in the full panel of roughly 83,000, 20% have a hit.
Provide only the numeric value, understood in %.

Worked cases, answers included:
In: What does the data say about its growth? Entry: "O=C(Nc1nc2ccc(F)cc2s1)c1cc(-c2ccc(F)cc2)n2nc(-c3ccccc3)cc2n1"
Out: 122

In: Request: "CN(Cc1ccccc1)Cc1ccc([N+](=O)[O-])cc1I"
Out: 92.5

In: Request: "COc1ccc(-c2nc(-c3nc4ccc(OC)cc4[nH]3)cc3c2[nH]c2ccccc23)cc1"
Out: 21.1

In: Request: "COc1ccc(NC(=O)Cc2nc3nc4sc(C)c(C)c4c(=O)n3[nH]2)cc1"
Out: 101

In: Request: "O=C(/C(=C/c1ccccc1)CN1CCCCC1)c1ccccc1"
Out: -7.89

In: Request: "COc1ccc(-c2cc(/C=C3\C(=O)Nc4ccc(OC)cc43)[nH]n2)cc1"
Out: 31.8

In: Request: "ClC(Cl)(Cl)c1nc2nccnc2[nH]1"
Out: 103

In: Request: N#CSCC1CC(O)(c2ccccc2)CC(c2ccc(Cl)cc2)O1 (stereo unspecified)
Out: -25.7

New cases:
In: What does the data say about its growth? Entry: "COC(=O)c1ccc(=O)oc1"
Out: 112

In: Request: "O=C(Nc1cccc(-n2cc(-c3ccncc3)c(-c3cc(O)cc(Cl)c3)n2)c1)Nc1ccc(Cl)c(C(F)(F)F)c1"
Out: 30.6

In: Request: "COc1ccc(OC)c(/C=C/c2nc(SCc3ccccc3)n(-c3ccc(Cl)cc3)n2)c1"
Out: 43.9

In: Request: CCCCC(CCCCCC(CCCC)NCc1ccc2c(c1)OCO2)NCc1ccc2c(c1)OCO2 (stereo unspecified)
Out: -100

In: Request: COc1ccc2c(c1)N(CCO)C1=C(C(=O)OC1)C2c1ccc(OC)c(OC)c1 (stereo unspecified)
Out: 53.4

In: Request: "COc1cc(-c2nc(-c3nnc(-c4ccccc4Cl)o3)c3ccccn23)cc(OC)c1OC"
Out: 111

In: Request: "CN(C)c1ccc(N=C2C=CC(=O)c3ccccc32)cc1"
Out: 88.6

In: Request: COc1ccc(-c2nsc3c2NC(=O)CC3c2ccc(F)cc2)cc1 (stereo unspecified)
Out: 56.2

In: Request: "Cn1c([N+](=O)[O-])cnc1/C=C1\Oc2ccccc2C1=O"
Out: -29.5

In: Request: "CC(=O)N(C)c1ccc(Nc2ccc(Nc3ccc(N(C)C(C)=O)cc3)c3c2C(=O)c2ccccc2C3=O)cc1"
Out: 32.6

In: Request: "CS(=O)(=O)Nc1ccc(Nc2c3ccccc3nc3cc(N)ccc23)cc1"
Out: 37.5

In: Request: "COc1ccc(/C(=C2/O[C@@H]([C@H]3COC(C)(C)O3)[C@H]3OC(C)(C)O[C@@H]23)c2cc(OC)c(OC)c(OC)c2)cc1O"
Out: 92.6

In: Request: CC[C@H](C)C(=O)O[C@H]1CCC=C2C=C[C@H](C)C(CCC3C[C@@H](O)CC(=O)O3)[C@H]21 (stereo partly specified)
Out: 42.5

###

System: HCC-2998 colon
assay notes: NCI-60 one-dose screen, 48 h (100 = growth as untreated, 0 = no growth, -100 = all killed)
condition parameters: 10 µM
This is part of a sample that, as a whole, favours compounds with a hit. Of some 83,000 tested, about 20% had one in any assay.
Strictly below 90% in growth: Satisfied. Otherwise: Not satisfied.

In: For this compound, is growth lower than 90%? "N=C(N)c1ccc(-c2ccc(-c3ccco3)o2)cc1"
Out: Satisfied

New cases:
In: For this compound, is growth lower than 90%? "COc1ccc(-c2nc3ccccn3c2-c2nnc(-c3cc(OC)c(OC)c(OC)c3)o2)cc1"
Out: Satisfied

In: Request: "O=[N+]([O-])c1ccc(N/N=C/c2cccc3ccccc23)nc1"
Out: Not satisfied

In: Request: "COc1cc(-c2nn3c(/C=C4/C(=O)Nc5ccccc54)c(-c4ccc(C)cc4)nc3s2)cc(OC)c1OC"
Out: Satisfied

In: Request: "COc1ccc(-c2nn(-c3cccc(NC(=O)c4ccc5c(c4)OCCO5)c3)cc2-c2ccncc2)cc1Cl"
Out: Satisfied

In: Request: "Cc1cccc(Cl)c1NC(=O)c1ccc2nc(NC(=O)NC3CCN(C)CC3)sc2c1"
Out: Not satisfied

In: Request: O=C(O)CC(Cl)C(Cl)CC(=O)O (stereo not given)
Out: Not satisfied

In: Request: "Nc1nc(N=Nc2ccc(O)cc2)cc(=O)[nH]1"
Out: Not satisfied

In: Request: "CCCCCCc1cc(N=Nc2ccc(S(=O)(=O)Nc3cc(C)nc(C)n3)cc2)c(O)cc1O"
Out: Not satisfied

In: Request: "Cc1ccc(Nc2nnc(-c3cc(-c4ccncc4)n(-c4ccccc4)n3)s2)cc1"
Out: Satisfied
